The measurements presented in this section are drawn from PubChem BioAssay (NCI).

Test system: MOLT-4 leukemia
Test: NCI-60 one-dose screen, 48 h
Conditions: 10 µM unless noted
This is part of a sample that, as a whole, favours compounds with a hit. Of some 83,000 tested, about 20% had one in any assay. Calls of active or inactive are those of the source. Rule for the calls: active = growth percent below 10; inactive = the rest.
Your reply should match one of these outcome classes. active, inactive

Challenge: For `O=c1cc(-c2cccnc2)oc2c1ccc1ccccc12` , what call appears in the results of this test?
Response given: inactive

Challenge: And for `O=C1c2nsnc2C(=O)c2c(F)c(F)c(F)c(F)c21` ?
Response given: active

Challenge: And for `N=c1ccn2c(n1)O[C@@H]1[C@@H](O)[C@H](CO)O[C@@H]12` ?
Response given: inactive

Challenge: And for `Fc1ccc([C@@H]2CCNC[C@H]2COc2ccc3c(c2)OCO3)cc1` ?
Response given: inactive

Challenge: And for CC1SC(c2c(Cl)cccc2Cl)N(NC(=O)c2[nH]c3ccc(F)cc3c2-c2ccccc2)C1=O (stereo not given) ?
Response given: inactive
